Data credit: ChEMBL document CHEMBL2057123

Biological target: L-lactate dehydrogenase A chain (Homo sapiens)
Assay: Inhibition of full length human recombinant LDHA expressed in Escherichia coli BL21 (DE3) cells after 10 mins by spectrophotometric analysis
Measurement type: IC50 (µM)

Cc1nc2ccc(NC(=O)CCNC(=O)NCCc3ccc(CC(C(=O)O)C(=O)O)cc3)cc2s1 : 1.9
Cc1nc2ccc(NC(=O)CCNC(=O)NCCOc3ccc(CC(C(=O)O)C(=O)O)cc3)cc2s1 : 4.2
Cc1nc2ccc(NC(=O)CCNC(=O)CCCc3ccc(CC(C(=O)O)C(=O)O)cc3)cc2s1 : 0.5
Cc1nc2ccc(NC(=O)CCNC(=O)NCCOc3ccc(CCC(=O)O)cc3)cc2s1 : 86.2
CCCSc1nc2ccc(NC(=O)CCNC(=O)NCCc3ccc(OC(C(=O)O)C(=O)O)cc3)cc2s1 : 7.4

P: NC(=O)C1=CN([C@@H]2O[C@H](COP(=O)(O)OP(=O)(O)OC[C@H]3O[C@@H](n4cnc5c(N)ncnc54)[C@H](O)[C@@H]3O)[C@@H](O)[C@H]2O)CCC1
Q: CCCSc1nc2ccc(NC(=O)CCNC(=O)NCCc3ccc(CC(C(=O)O)C(=O)O)cc3)cc2s1
R: O=C(O)c1nsnc1O
S: CCCSc1nc2ccc(NC(=O)CCNC(=O)NCCOc3ccc(CC(C(=O)O)C(=O)O)cc3)cc2s1
In: Order the records, beginning with the lowest IC50 and ending with the highest. Write the labels in rank order as requested.
Out: Q, S, P, R
(Q: 0.29 µM, S: 3.1 µM, P: 132 µM, R: 450 µM)

A: Cc1nc2ccc(NC(=O)CCNC(=O)NCCc3ccc(OC(C(=O)O)C(=O)O)cc3)cc2s1
B: CCCSc1nc2ccc(NC(=O)CCNC(=O)CCCc3ccc(CC(C(=O)O)C(=O)O)cc3)cc2s1
In: // compare measured IC50, left A , right B , return larger Kindly state the label of the option you pick.
Out: A
(A: 29.5 µM, B: 0.27 µM)

====

Molecular target: L-lactate dehydrogenase B chain (Homo sapiens, UniProt P07195)
Sequence (P07195 whole entry, the tested form may be a part): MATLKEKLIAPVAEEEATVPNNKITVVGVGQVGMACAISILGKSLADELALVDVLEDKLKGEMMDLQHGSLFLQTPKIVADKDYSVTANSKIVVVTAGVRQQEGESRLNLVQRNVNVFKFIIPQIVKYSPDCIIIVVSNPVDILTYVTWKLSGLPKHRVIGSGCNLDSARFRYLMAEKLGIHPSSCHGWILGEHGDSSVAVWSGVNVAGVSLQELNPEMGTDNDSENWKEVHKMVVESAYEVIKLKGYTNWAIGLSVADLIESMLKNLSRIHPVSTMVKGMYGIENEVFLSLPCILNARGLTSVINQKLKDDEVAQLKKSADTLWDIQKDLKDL
Test: Inhibition of human recombinant LDHB (2 to 334 amino acid residue) expressed in Escherichia coli BL21 (DE3) cells after 10 mins by spectrophotometric analysis
Measurement type: IC50 (µM)

NC(=O)C1=CN([C@@H]2O[C@H](COP(=O)(O)OP(=O)(O)OC[C@H]3O[C@@H](n4cnc5c(N)ncnc54)[C@H](O)[C@@H]3O)[C@@H](O)[C@H]2O)CCC1 : 9.4
O=C(O)c1nsnc1O : 7.8
